Molecular target: Avi-KRAS G12D (2-169) GTP/RAF1 RBD-3xFLAG (51-131) (Homo sapiens, UniProt P01116, G12D)
Construct: Avi-KRAS G12D (2-169)
Sequence (P01116 2-169 isoform P01116-2 G12D): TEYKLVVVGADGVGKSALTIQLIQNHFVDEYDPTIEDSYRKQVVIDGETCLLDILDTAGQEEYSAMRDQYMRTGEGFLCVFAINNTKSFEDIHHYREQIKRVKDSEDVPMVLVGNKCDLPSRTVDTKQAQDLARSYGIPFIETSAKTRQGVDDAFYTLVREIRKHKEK
Experiment: Raf1-KRAS G12D-GTP disruption HTRF assay (Biological Example 3)
Assay type: binding
Conditions: KRAS G12D, GTP-loaded
measurement-type: IC50

A selection of reference data follows.
# molecule, system-name, IC50
rows = [
    ("CCN(c1nc(OC[C@@]23CCCN2C[C@H](F)C3)nc2c(F)c(-c3ccc(F)c4sc(N)c(C#N)c34)c(C(F)(F)F)cc12)[C@H]1C[C@H]2CN(C(C)(C)C)C(=O)N2C1 (atropisomer, axis not shown)", "Avi-KRAS G12D (2-169) GTP/RAF1 RBD-3xFLAG (51-131) (Homo sapiens, UniProt P01116, G12D)", "100 to 1000 nM"),
    ("CN(c1nc(OCC23CCCN2CC(F)C3)nc2c(F)c(-c3ccc(F)c4sc(N)c(C#N)c34)c(C(F)(F)F)cc12)C1CCc2ccncc21 (stereo not drawn) [Compound 961]", "Avi-KRAS G12D (2-169) GTP/RAF1 RBD-3xFLAG (51-131) (Homo sapiens, UniProt P01116, G12D)", "1000 to 10000 nM"),
    ("CCN(c1nc(OC[C@@]23CCCN2C[C@H](F)C3)nc2c(F)c(-c3ccc(F)c4sc(N)c(C#N)c34)c(C(F)(F)F)cc12)[C@@H]1CCN2C(=O)OC[C@H]12 (atropisomer, axis not shown)", "Avi-KRAS G12D (2-169) GTP/RAF1 RBD-3xFLAG (51-131) (Homo sapiens, UniProt P01116, G12D)", "1000 to 10000 nM"),
]

Reported IC50 for CCN(c1nc(OC[C@@]23CCCN2C[C@H](F)C3)nc2c(F)c(-c3ccc(F)c4sc(N)c(C#N)c34)c(C(F)(F)F)cc12)[C@H]1CCN(C(=O)c2cnc(Cl)s2)C1 (atropisomer, axis not shown) was 100 to 1000 nM

Reported IC50 for CCN(c1nc(OC[C@@]23CCCN2C[C@H](F)C3)nc2c(F)c(-c3ccc(F)c4sc(N)c(C#N)c34)c(C(F)(F)F)cc12)[C@H]1C[C@H]2CC(C)(C)C(=O)N2C1 (atropisomer, axis not shown) was ≤ 100 nM

Reported IC50 for CCN1C[C@@H](N(CC)c2nc(OC[C@@]34CCCN3C[C@H](F)C4)nc3c(F)c(-c4ccc(F)c5sc(N)c(C#N)c45)c(C(F)(F)F)cc23)CC1=O was ≤ 100 nM

Reported IC50 for CCN(c1nc(OC[C@@]23CCCN2C[C@H](F)C3)nc2c(F)c(-c3ccc(F)c4sc(N)c(C#N)c34)c(C(F)(F)F)cc12)[C@H]1CCN(C(=O)C2CC(OC)C2)C1 (stereo partly drawn) was 100 to 1000 nM

Reported IC50 for C[C@H](c1cccnc1N)N(C)c1nc(OC[C@@]23CCCN2C[C@H](F)C3)nc2c(F)c(-c3ccc(F)c4sc(N)c(C#N)c34)c(C(F)(F)F)cc12 (atropisomer, axis not shown) was ≤ 100 nM

Reported IC50 for CCN(c1nc(OC[C@@H]2C[C@@H](OC)CN2C)nc2c(F)c(-c3ccc(F)c4sc(N)c(C#N)c34)c(C(F)(F)F)cc12)[C@H]1CCN(C(=O)C(C)C)C1 was 100 to 1000 nM

Reported IC50 for CCN(c1nc(OC[C@@]23CCCN2C[C@H](F)C3)nc2c(F)c(-c3ccc(F)c4sc(N)c(C#N)c34)c(C(F)(F)F)cc12)[C@H]1CCN(C(=O)OC)C1 (atropisomer, axis not shown) [Compound 541] was ≤ 100 nM

Reported IC50 for CCN(c1nc(OC[C@@]23CCCN2C[C@H](F)C3)nc2c(F)c(-c3ccc(F)c4sc(N)c(C#N)c34)c(C(F)(F)F)cc12)[C@H]1C[C@H](COC)N(C(=O)[C@@H]2C[C@H]2F)C1 (atropisomer, axis not shown) was 100 to 1000 nM

Reported IC50 for CCN(c1nc(OC[C@@]23CCCN2C[C@H](F)C3)nc2c(F)c(-c3ccc(F)c4sc(N)c(C#N)c34)c(C(F)(F)F)cc12)[C@@H]1CC[C@@H](C(=O)N(C)C)C1 (atropisomer, axis not shown) was 1000 to 10000 nM

Reported IC50 for CCN(c1nc(OC[C@@]23CCCN2C[C@H](F)C3)nc2c(F)c(-c3ccc(F)c4sc(N)c(C#N)c34)c(C(F)(F)F)cc12)[C@H]1CC(=O)N2CCC[C@@H]12 (atropisomer, axis not shown; (aS)) was ≤ 100 nM

Reported IC50 for CC(=O)N1CC[C@@H](N(C)c2nc(OC[C@@]34CCCN3C[C@H](F)C4)nc3c(F)c(-c4ccc(F)c5sc(N)c(C#N)c45)c(C(F)(F)F)cc23)[C@H]1C (single isomer, unassigned) was 100 to 1000 nM

Reported IC50 for CCN(c1nc(OC[C@@]23CCCN2C[C@H](F)C3)nc2c(F)c(-c3ccc(F)c4sc(N)c(C#N)c34)c(C(F)(F)F)cc12)[C@H]1C[C@H](C)N(C(=O)[C@@H]2C[C@H]2F)C1 (atropisomer, axis not shown; (aS)) was 100 to 1000 nM

Reported IC50 for CN(Cc1ccon1)c1nc(OC[C@@]23CCCN2C[C@H](F)C3)nc2c(F)c(-c3ccc(F)c4sc(N)c(C#N)c34)c(C(F)(F)F)cc12 (atropisomer, axis not shown) was 100 to 1000 nM

Reported IC50 for C/C=C/C(=O)N1C[C@@H](N(CC)c2nc(OC[C@@]34CCCN3C[C@H](F)C4)nc3c(F)c(-c4ccc(F)c5sc(N)c(C#N)c45)c(C(F)(F)F)cc23)C[C@@H]1COC (atropisomer, axis not shown) was 100 to 1000 nM

Reported IC50 for CN(Cc1cccc(=O)n1C)c1nc(OC[C@@]23CCCN2C[C@H](F)C3)nc2c(F)c(-c3ccc(F)c4sc(N)c(C#N)c34)c(C(F)(F)F)cc12 (atropisomer, axis not shown) was 1000 to 10000 nM

Source: patent US20260042764A1
